Structures can show the parent of a compound that is named as a salt.
Give Ki for every item shown.

Query: Recall the recorded Ki for Cc1ccc(C)c(CNc2ncc3n(c2=O)[C@H](C(=O)NCc2cc4cnc(C)cc4[nH]2)CC3)c1 [Compound 57] with human α-thrombin (Homo sapiens, UniProt P00734) and state it.
Reply: 10 to 25 µM

Query: Request: Ki, test system human α-thrombin (Homo sapiens, UniProt P00734), entry O=C(NCc1cc2cnccc2[nH]1)[C@@H]1CCc2c(Cl)nc(NCc3ccc4c(c3)CCCC4)c(=O)n21 [Compound 162]
Reply: > 25 µM

Query: API: value(readout=Ki, system=human α-thrombin (Homo sapiens, UniProt P00734)) for record Cc1cc(F)c(F)c(CNc2ncc3n(c2=O)[C@H](C(=O)N[C@H](C)c2ccc(N)nc2)CC3)c1 [Compound 224, trifluoroacetate]
Reply: 2.5 to 10 µM
